Hello, the source for this data is the supplement of paper PMC6757056, in case you need it.

B1: library; a variant is named by its letters at N, in order (parent)
chain: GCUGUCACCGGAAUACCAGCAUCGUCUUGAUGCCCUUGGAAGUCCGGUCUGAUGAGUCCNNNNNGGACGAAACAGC

Variants of: B1
Assay: normalized RNA/DNA level without ligand (relative to sTRSVctl = 100) (log10 (% of sTRSVctl)); higher = less ribozyme self-cleavage, higher mRNA level
Settings: HEK293T, reporter: mCherry (pCS4076), ligand present: no
property.measured: normalized RNA/DNA level without ligand (log10)
// return just the number, without any unit appended

> print(dat)
                                   residues  recorded.measurement
1  GCUGUCACCGGAAUACCAGCAUCGUCUUGAUGCCCUUGGAAGUCCGGUCUGAUGAGUCCCCACUGGACGAAACAGC                  1.76
2  GCUGUCACCGGAAUACCAGCAUCGUCUUGAUGCCCUUGGAAGUCCGGUCUGAUGAGUCCCAGUCGGACGAAACAGC                  1.86
3  GCUGUCACCGGAAUACCAGCAUCGUCUUGAUGCCCUUGGAAGUCCGGUCUGAUGAGUCCUUGAUGGACGAAACAGC                  1.82
4  GCUGUCACCGGAAUACCAGCAUCGUCUUGAUGCCCUUGGAAGUCCGGUCUGAUGAGUCCAAGCCGGACGAAACAGC                  2.01
5  GCUGUCACCGGAAUACCAGCAUCGUCUUGAUGCCCUUGGAAGUCCGGUCUGAUGAGUCCUCCCCGGACGAAACAGC                  2.01
6  GCUGUCACCGGAAUACCAGCAUCGUCUUGAUGCCCUUGGAAGUCCGGUCUGAUGAGUCCUCGCUGGACGAAACAGC                  1.89

Data request: Report measured normalized RNA/DNA level without ligand (log10); entry is `GCUGUCACCGGAAUACCAGCAUCGUCUUGAUGCCCUUGGAAGUCCGGUCUGAUGAGUCCACCAUGGACGAAACAGC`
Data returned: 1.86

Data request: Report measured normalized RNA/DNA level without ligand (log10); entry is `GCUGUCACCGGAAUACCAGCAUCGUCUUGAUGCCCUUGGAAGUCCGGUCUGAUGAGUCCCUAUCGGACGAAACAGC`
Data returned: 1.93
